FYI, the data here is from ChEMBL document CHEMBL4825698.

- Tested on: Mycobacterium tuberculosis
- experiment.notes: Antimycobacterial activity against Mycobacterium tuberculosis H37Rv assessed as bacterial growth inhibition incubated for 7 days by MABA assay
- Type: functional
- conditions: 168 h, time 7 day
Assignment: determine reported MIC for the given compounds.

compound | test.target | MIC
CC(C)C(=O)OC1CCC(CN2CCN(c3cc(=O)c4cc(C(F)(F)F)cc([N+](=O)[O-])c4s3)CC2)CC1 (centres undefined) | Mycobacterium tuberculosis | < 0.016 µg/mL

Hi, could you look up MIC for each item in my list?
1. O=C(OC1CCC(CN2CCN(c3cc(=O)c4cc(C(F)(F)F)cc([N+](=O)[O-])c4s3)CC2)CC1)c1cccc(F)c1 (centres undefined)
2. CC(=O)OC1CCC(CN2CCN(c3cc(=O)c4cc(C(F)(F)F)cc([N+](=O)[O-])c4s3)CC2)CC1 (centres undefined)
3. O=c1cc(N2CCN(CC3CCC(OS(=O)(=O)c4cccnc4)CC3)CC2)sc2c([N+](=O)[O-])cc(C(F)(F)F)cc12 (centres undefined)
4. O=c1cc(N2CCN(CC3CCCCC3)CC2)sc2c([N+](=O)[O-])cc(C(F)(F)F)cc12
5. CCCC(=O)OC1CCC(CN2CCN(c3cc(=O)c4cc(C(F)(F)F)cc([N+](=O)[O-])c4s3)CC2)CC1 (centres undefined)

Response:
["< 0.016 µg/mL", "< 0.016 µg/mL", "< 0.016 µg/mL", "< 0.016 µg/mL", "< 0.016 µg/mL"]

----------
- System: Mycobacterium tuberculosis
- experiment.notes: Antimycobacterial activity against Mycobacterium tuberculosis H37Rv assessed as bacterial growth inhibition incubated for 7 days by MABA assay
- Type: functional
- conditions: 168 h, time 7 day
observable: MIC

For orientation, consider the following solved cases.
compound | test.target | endpoint.result
O=c1cc(N2CCN(CC3CCC(OS(=O)(=O)c4ccccc4)CC3)CC2)sc2c([N+](=O)[O-])cc(C(F)(F)F)cc12 (stereo unspecified) | Mycobacterium tuberculosis | < 0.016 mg/L
O=c1cc(N2CCN(CC3CCC(OS(=O)(=O)c4ccc5ccccc5c4)CC3)CC2)sc2c([N+](=O)[O-])cc(C(F)(F)F)cc12 (stereo unspecified) | Mycobacterium tuberculosis | < 0.016 mg/L

Each compound below has a reported value. Please supply its MIC.
1. O=C(OC1CCC(CN2CCN(c3cc(=O)c4cc(C(F)(F)F)cc([N+](=O)[O-])c4s3)CC2)CC1)c1ccco1 (stereo unspecified)
2. O=C(OC1CCC(CN2CCN(c3cc(=O)c4cc(C(F)(F)F)cc([N+](=O)[O-])c4s3)CC2)CC1)c1ccccc1 (stereo unspecified)
3. O=C(OC1CCC(CN2CCN(c3cc(=O)c4cc(C(F)(F)F)cc([N+](=O)[O-])c4s3)CC2)CC1)c1ccc(F)cc1 (stereo unspecified)
4. O=C(OC1CCC(CN2CCN(c3cc(=O)c4cc(C(F)(F)F)cc([N+](=O)[O-])c4s3)CC2)CC1)c1cccs1 (stereo unspecified)

Response:
1: < 0.016 mg/L; 2: < 0.016 mg/L; 3: < 0.016 mg/L; 4: < 0.016 mg/L

----------
- Test system: Mycobacterium tuberculosis
- experiment.notes: Antimycobacterial activity against Mycobacterium tuberculosis H37Rv assessed as bacterial growth inhibition incubated for 7 days by MABA assay
- Assay type: functional
- conditions: 168 h, time 7 day
observable: MIC

Return reported MIC values for all items listed beneath this line.
1. Nc1cc(C(F)(F)F)cc2c(=O)cc(N3CCN(CC4CCC(O)CC4)CC3)sc12 (stereo not drawn)
2. CS(=O)(=O)NC1CCC(CN2CCN(c3cc(=O)c4cc(C(F)(F)F)cc([N+](=O)[O-])c4s3)CC2)CC1 (stereo not drawn)
3. O=C(OC1CCC(CN2CCN(c3cc(=O)c4cc(C(F)(F)F)cc([N+](=O)[O-])c4s3)CC2)CC1)c1ccc(C(F)(F)F)cc1 (stereo not drawn)

Response:
1: > 32 µg/mL; 2: > 32 µg/mL; 3: < 0.016 µg/mL
